protocol_text: Trypanosoma cruzi growth suppression in host cells – NIH3T3 host cells, beta-gal luminescence, confirmation (AID 2044);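 note: intracellular parasites grown in NIH/3T3 mouse fibroblasts as host cells; luminescent beta-galactosidase reporter signal from transgenic T. cruzi replicating inside host cells; inhibitors lower the luminescence signal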
Format: functional, cell-based
The source made the active and inactive calls. Cut-off read from the data, not from the text of the source: actives have a measured EC50 and inactives only a lower limit.
quantity: EC50

See these solved cases before continuing.
Cc1onc(-c2ccccc2)c1CNC(=O)Nc1ccc(C(F)(F)F)cc1	4.33 µM (active)
COC(=O)c1[nH]c2ccccc2c1NC(=O)CN1CCCc2ccccc21	0.89 µM (active)
CCCCn1c(NC(=O)c2ccccc2)nc2ccccc21	2.15 µM (active)

q: Form field: reported EC50 of C=CCc1cccc(/C=N/NC(=O)c2ccccc2Br)c1O
a: 1.72 µM (active)

q: Form field: reported EC50 of O=C(CNc1ccccc1)N/N=C/c1ccc([N+](=O)[O-])o1
a: < 0.1 µM (active)
